B1: library; a variant is named by its letters at N, in order (parent)
chain: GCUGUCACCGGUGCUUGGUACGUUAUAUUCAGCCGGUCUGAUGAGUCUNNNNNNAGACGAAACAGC

Variants of: B1
Assay: normalized RNA/DNA level with ligand (relative to sTRSVctl = 100) (log10 (% of sTRSVctl)); HEK293T overexpressing SLC46A1; ligand concentration (+) RNA-Seq: 6 mM; higher = less ribozyme self-cleavage, higher mRNA level
Conditions: with (6R,S)-folinic acid; ligand present: yes
Readings of normalized RNA/DNA level with ligand (log10) for the listed variants
// no unit string in output, number only

Known results for variants:
record_sequence: GCUGUCACCGGUGCUUGGUACGUUAUAUUCAGCCGGUCUGAUGAGUCUAGUGUGAGACGAAACAGC [AGUGUG]
experimental_result: 1.97
//
record_sequence: GCUGUCACCGGUGCUUGGUACGUUAUAUUCAGCCGGUCUGAUGAGUCUCGCGGUAGACGAAACAGC [CGCGGU]
experimental_result: 2.04
//
record_sequence: GCUGUCACCGGUGCUUGGUACGUUAUAUUCAGCCGGUCUGAUGAGUCUGGCUGAAGACGAAACAGC [GGCUGA]
experimental_result: 2.08

Proceeding to the next variant to report its normalized RNA/DNA level with ligand (log10).
Suppose we examine the variant GCUGUCACCGGUGCUUGGUACGUUAUAUUCAGCCGGUCUGAUGAGUCUCCCGGGAGACGAAACAGC [CCCGGG] ; what normalized RNA/DNA level with ligand (log10) value has been reported? 1.99
